Entry source: ChEMBL document CHEMBL6103545

Hi there, I'd appreciate the recorded Papp A→B at 4 h for every entry that follows.
assay: Apparent permeability across apical to basolateral side in cMDR1 knockout MDCK-II cells incubated upto 240 mins by RF-QToF analysis; format: ADME, cell-based, Canis lupus familiaris; details: dog
Numeric answer only, unit ×10⁻⁶ cm/s assumed.

### Prompt Reported Papp A→B at 4 h for `Cc1nc(-c2nnn(C)c2NC(=O)O[C@@H](c2ccccc2)C(F)(F)F)ccc1NS(C)(=O)=O` : what is it?
### Response 18

### Prompt Ok, now `Cc1ccc(C(=O)Nc2ccc(-c3nnn(C)c3NC(=O)O[C@H](C)c3cc(F)cnc3F)nc2)cn1`
### Response 7.2

### Prompt Try this molecule too: `C[C@@H](OC(=O)Nc1c(-c2ccc(NC(=O)C34CC(F)(C3)C4)cn2)nnn1C)c1cc(F)cnc1F`
### Response 11

### Prompt Repeat with `C[C@@H](OC(=O)Nc1c(-c2ccc(NS(C)(=O)=O)cn2)nnn1C)c1cccc(F)c1`
### Response 15

### Prompt Another molecule: `C[C@@H](OC(=O)Nc1c(-c2ccc(NS(C)(=O)=O)cn2)nnn1C)c1cccnc1Cl`
### Response 2.8

### Prompt Next molecule: `C[C@@H](OC(=O)Nc1c(-c2ccc(NC(=O)c3cnc(C(F)(F)F)nc3)cn2)nnn1C)c1cc(F)cnc1F`
### Response 11

### Prompt Cool, now `C[C@@H](OC(=O)Nc1c(-c2ccc(NC(=O)[C@@H]3CC3(F)F)cn2)nnn1C)c1cc(F)cnc1F`
### Response 12

### Prompt Then this molecule: `C[C@@H](OC(=O)Nc1c(-c2ccc(NC(=O)c3ccnc(C(F)(F)F)c3)cn2)nnn1C)c1cc(F)cnc1F`
### Response 4.6

### Prompt Here is the next molecule: `C[C@@H](OC(=O)Nc1c(-c2ccc(NS(C)(=O)=O)cn2)nnn1C)c1cc(F)cnc1F`
### Response 3.2

### Prompt Repeat for the following molecule: `C[C@@H](OC(=O)Nc1c(-c2ccc(NC(=O)C3(C#N)CC3)cn2)nnn1C)c1cc(F)cnc1F`
### Response 21

### Prompt For `C[C@@H](OC(=O)Nc1c(-c2ccc(NC(=O)C34CC(C#N)(C3)C4)cn2)nnn1C)c1cc(F)cnc1F` then?
### Response 8.3
